# Experimental Setup: 398.15 K; 101.33 kPa; Liquid; Alternating current cell with electrodes
For each record, write down the corresponding electrical conductivity.
Answers are plain numbers, in S/m.

CCn1cc[n+](C)c1.F[B-](F)(F)F [1-ethyl-3-methylimidazolium tetrafluoroborate]
10.6
CCCCCCCC[n+]1ccn(C)c1.F[B-](F)(F)F [1-methyl-3-octylimidazolium tetrafluoroborate]
1.7
CCCCCCn1cc[n+](C)c1.F[B-](F)(F)F [1-hexyl-3-methylimidazolium tetrafluoroborate]
2.78

Let us move to another entry and its electrical conductivity.
Please list electrical conductivity recorded for the molecule CCCCn1cc[n+](C)c1.F[B-](F)(F)F [1-butyl-3-methylimidazolium tetrafluoroborate] 5.13

###

# Experimental Setup: 438.15 K; 101.33 kPa; Liquid; Alternating current cell with electrodes
Readout Name: electrical conductivity (S/m)
Answers are plain numbers, in S/m.

CCCCCCCC[n+]1ccn(C)c1.F[B-](F)(F)F [1-methyl-3-octylimidazolium tetrafluoroborate]
3.15
CCCCCCn1cc[n+](C)c1.F[B-](F)(F)F [1-hexyl-3-methylimidazolium tetrafluoroborate]
4.88
CCn1cc[n+](C)c1.F[B-](F)(F)F [1-ethyl-3-methylimidazolium tetrafluoroborate]
15.5

Please list electrical conductivity recorded for the molecule CCCCn1cc[n+](C)c1.F[B-](F)(F)F [1-butyl-3-methylimidazolium tetrafluoroborate] 8.29

###

For each record, write down the corresponding electrical conductivity.
# Experimental Setup: 378.15 K; 101.33 kPa; Liquid; Alternating current cell with electrodes
One number for each entry, in S/m.

CCCCn1cc[n+](C)c1.F[B-](F)(F)F [1-butyl-3-methylimidazolium tetrafluoroborate]
3.73
CCCCCCn1cc[n+](C)c1.F[B-](F)(F)F [1-hexyl-3-methylimidazolium tetrafluoroborate]
1.92
CCn1cc[n+](C)c1.F[B-](F)(F)F [1-ethyl-3-methylimidazolium tetrafluoroborate]
8.29

Let us move to another entry and its electrical conductivity.
Please list electrical conductivity recorded for the compound CCCCCCCC[n+]1ccn(C)c1.F[B-](F)(F)F [1-methyl-3-octylimidazolium tetrafluoroborate] 1.13

###

For each record, write down the corresponding electrical conductivity.
# Experimental Setup: 408.15 K; 101.33 kPa; Liquid; Alternating current cell with electrodes
Give bare numbers, in S/m.

CCCCCCn1cc[n+](C)c1.F[B-](F)(F)F [1-hexyl-3-methylimidazolium tetrafluoroborate]
3.26
CCCCCCCC[n+]1ccn(C)c1.F[B-](F)(F)F [1-methyl-3-octylimidazolium tetrafluoroborate]
2.03
CCCCn1cc[n+](C)c1.F[B-](F)(F)F [1-butyl-3-methylimidazolium tetrafluoroborate]
5.88

Let us move to another entry and its electrical conductivity.
Please list electrical conductivity recorded for the compound CCn1cc[n+](C)c1.F[B-](F)(F)F [1-ethyl-3-methylimidazolium tetrafluoroborate] 11.8

###

# Experimental Setup: 418.15 K; 101.33 kPa; Liquid; Alternating current cell with electrodes
For each record, write down the corresponding electrical conductivity.
Answers are plain numbers, in S/m.

CCCCCCn1cc[n+](C)c1.F[B-](F)(F)F [1-hexyl-3-methylimidazolium tetrafluoroborate]
3.77
CCCCn1cc[n+](C)c1.F[B-](F)(F)F [1-butyl-3-methylimidazolium tetrafluoroborate]
6.64
CCCCCCCC[n+]1ccn(C)c1.F[B-](F)(F)F [1-methyl-3-octylimidazolium tetrafluoroborate]
2.38

Please list electrical conductivity recorded for the molecule CCn1cc[n+](C)c1.F[B-](F)(F)F [1-ethyl-3-methylimidazolium tetrafluoroborate] 13

###

# Experimental Setup: 358.15 K; 101.33 kPa; Liquid; Alternating current cell with electrodes
For each record, write down the corresponding electrical conductivity.
Answers are plain numbers, in S/m.

Here is how some compounds turned out for electrical conductivity.
CCCCCCCC[n+]1ccn(C)c1.F[B-](F)(F)F [1-methyl-3-octylimidazolium tetrafluoroborate]
0.688
CCCCCCn1cc[n+](C)c1.F[B-](F)(F)F [1-hexyl-3-methylimidazolium tetrafluoroborate]
1.21
CCn1cc[n+](C)c1.F[B-](F)(F)F [1-ethyl-3-methylimidazolium tetrafluoroborate]
6.2

Please list electrical conductivity recorded for the compound CCCCn1cc[n+](C)c1.F[B-](F)(F)F [1-butyl-3-methylimidazolium tetrafluoroborate] 2.52

###

# Experimental Setup: 288.15 K; 101.33 kPa; Liquid; Alternating current cell with electrodes
For each record, write down the corresponding electrical conductivity.
One number for each entry, in S/m.

Here is how some molecules turned out for electrical conductivity.
CCCCCCn1cc[n+](C)c1.F[B-](F)(F)F [1-hexyl-3-methylimidazolium tetrafluoroborate]
0.0672
CCCCCCCC[n+]1ccn(C)c1.F[B-](F)(F)F [1-methyl-3-octylimidazolium tetrafluoroborate]
0.0304
CCn1cc[n+](C)c1.F[B-](F)(F)F [1-ethyl-3-methylimidazolium tetrafluoroborate]
1.08

Let us move to another entry and its electrical conductivity.
Please list electrical conductivity recorded for the molecule CCCCn1cc[n+](C)c1.F[B-](F)(F)F [1-butyl-3-methylimidazolium tetrafluoroborate] 0.211

###

# Experimental Setup: 388.15 K; 101.33 kPa; Liquid; Alternating current cell with electrodes
For each record, write down the corresponding electrical conductivity.
One number for each entry, in S/m.

Here is how some compounds turned out for electrical conductivity.
CCCCCCn1cc[n+](C)c1.F[B-](F)(F)F [1-hexyl-3-methylimidazolium tetrafluoroborate]
2.33
CCCCCCCC[n+]1ccn(C)c1.F[B-](F)(F)F [1-methyl-3-octylimidazolium tetrafluoroborate]
1.4
CCn1cc[n+](C)c1.F[B-](F)(F)F [1-ethyl-3-methylimidazolium tetrafluoroborate]
9.41

Let us move to another entry and its electrical conductivity.
Please list electrical conductivity recorded for the compound CCCCn1cc[n+](C)c1.F[B-](F)(F)F [1-butyl-3-methylimidazolium tetrafluoroborate] 4.41

###

For each record, write down the corresponding electrical conductivity.
# Experimental Setup: 248.05 K; 101.33 kPa; Liquid; Alternating current cell with electrodes
Numeric answer plus unit only.

CCCCCCCC[n+]1ccn(C)c1.F[B-](F)(F)F [1-methyl-3-octylimidazolium tetrafluoroborate]
0.00065 S/m
CCCCCCn1cc[n+](C)c1.F[B-](F)(F)F [1-hexyl-3-methylimidazolium tetrafluoroborate]
0.00169 S/m
CCn1cc[n+](C)c1.F[B-](F)(F)F [1-ethyl-3-methylimidazolium tetrafluoroborate]
0.106 S/m

Let us move to another entry and its electrical conductivity.
Please list electrical conductivity recorded for the compound CCCCn1cc[n+](C)c1.F[B-](F)(F)F [1-butyl-3-methylimidazolium tetrafluoroborate] 0.00778 S/m

###

# Experimental Setup: 288.15 K; 101.33 kPa; Liquid; Vibrating tube method
For each record, write down the corresponding mass density.
Give bare numbers, in kg/m3.

CCCCCCCC[n+]1ccn(C)c1.F[B-](F)(F)F [1-methyl-3-octylimidazolium tetrafluoroborate]
1110.36
CCCCCCn1cc[n+](C)c1.F[B-](F)(F)F [1-hexyl-3-methylimidazolium tetrafluoroborate]
1153.14
CCn1cc[n+](C)c1.F[B-](F)(F)F [1-ethyl-3-methylimidazolium tetrafluoroborate]
1288.03

Please list mass density recorded for the compound CCCCn1cc[n+](C)c1.F[B-](F)(F)F [1-butyl-3-methylimidazolium tetrafluoroborate] 1209.33

###

# Experimental Setup: 278.1 K; 101.33 kPa; Liquid; Vibrating tube method
Readout Name: mass density (kg/m3)
One number for each entry, in kg/m3.

CCCCCCCC[n+]1ccn(C)c1.F[B-](F)(F)F [1-methyl-3-octylimidazolium tetrafluoroborate]
1116.79
CCn1cc[n+](C)c1.F[B-](F)(F)F [1-ethyl-3-methylimidazolium tetrafluoroborate]
1293.75
CCCCn1cc[n+](C)c1.F[B-](F)(F)F [1-butyl-3-methylimidazolium tetrafluoroborate]
1215.43

Let us move to another entry and its mass density.
Please list mass density recorded for the compound CCCCCCn1cc[n+](C)c1.F[B-](F)(F)F [1-hexyl-3-methylimidazolium tetrafluoroborate] 1159.81
